target.entity: DNA topoisomerase II (Homo sapiens) (UniProt P11388+Q02880)
assay.name: Relative activity to induce mammalian DNA topoisomerase II-mediated DNA cleavage
Assay type: functional
outcome.measure: Activity

Known results for molecules:
{"columns": ["substance.smiles", "numeric.readout"],
 "data": [
  ["Cc1ccc[n+](C2=C([O-])C(=O)c3c(O)ccc(O)c3C2=O)c1", 0.5],
  ["COc1ccc(OC)c2c1C(=O)C(Cl)=C(Oc1cccc(O)c1)C2=O", 10],
  ["COc1cc(OC)cc(OC2=C(Cl)C(=O)c3c(OC(C)=O)ccc(OC(C)=O)c3C2=O)c1", 50],
  ["COc1cccc(OC2=C(Cl)C(=O)c3c(O)ccc(O)c3C2=O)c1", 800]
]}

(I) COc1cc(OC)c2c3c(oc2c1)C(=O)c1c(OC)ccc(OC)c1C3=O
(II) COc1cc(OC)cc(OC2=C(Cl)C(=O)c3c(O)ccc(O)c3C2=O)c1
(III) O=C1C(Cl)=C(Oc2cccc(O)c2)C(=O)c2c(O)ccc(O)c21
(IV) O=C1C=CC(=O)c2c(O)c(Oc3ccccc3)c(Oc3ccccc3)c(O)c21
Arrange items by their Activity values in increasing order. The reply should contain the labels ordered as requested.
I, II, III, IV
(I: 2, II: 50, III: 100, IV: 500)
